// provenance: PubChem BioAssay (NCI)

- Assay Remarks: NCI Yeast Anticancer Drug Screen. Data for the bub3 strain (AID 167)
- Conditions: S. cerevisiae bub3 mutant strain, at 50.0 µM
The panel holds about 79,000 compounds, 15% with a hit somewhere; the sample as a whole holds those more often. Active and inactive are the calls of the source. Cut-off read from the data, not from the text of the source: active = growth inhibition above about 70%; inactive = the rest.
One label from this list, please: yes (active), no (inactive)

Compound	Category Label
Clc1ccc(C2ON2c2ccccc2)cc1 (centres undefined) (tested in a mixture with another compound)	no

What classification did `O=[As](O)(O)c1ccc2nc3cc([As](=O)(O)O)ccc3nc2c1` end up with in this test?
no

Next up: `COc1ccc(P2(=S)OC(C)(C)C(C)(C)O2)cc1`
no

Please do the same for `COc1cc2c(c(OC)c1OC)-c1ccc(O)c(=O)cc1[C@@H](NC(C)=O)CC2` as well.
no

Now the compound O=C(c1ccccc1)C1C(C(=O)c2ccccc2)N1C1CCCCC1 (centres undefined)
yes

Consider next the compound `CC1=C/C(=N\[Se]c2ccccc2)C(=O)C(C)=C1` in the same way.
no

Same lookup for `COP(=O)(O)NC(C)=O` , please.
no

`c1cc[c]([Pb]([S]c2nc3ccccc3[nH]2)([c]2ccccc2)[c]2ccccc2)cc1` ?
yes

Record: `O=[N+]([O-])c1ccc([As](=O)(O)c2cccc([N+](=O)[O-])c2)cc1`
no

What would you report for `CC(C)(C)[Si](C)(C)OC(=O)CCCc1ccc(N(CCCl)CCCl)cc1` ?
no

// query: `CCc1cc(C)cc2[n+]1CC=C2`
yes

Queued: `Cc1ccc(SP(=S)(Sc2ccc(C)cc2)Sc2ccc(C)cc2)cc1`
no

// same read-out, input: `C[CH2][Sn]([CH2]C)([n]1c(C)nc2ccccc21)[n]1c(C)nc2ccccc21`
no

Do the same for O=C1C(CCl)(CCl)CCC12CNC(Cl)(Cl)C2 (centres undefined) please
no

Please do the same for CC(=O)NC(ON1C(=O)COc2ccccc21)C(Cl)(Cl)Cl (centres undefined) as well.
no

Now this one: `O=S(=O)(F)c1ccc(Cl)cc1`
yes

Another compound to look at: NC(Cc1ccc(N(CCCl)Cc2ccccc2)cc1)C(=O)O (centres undefined)
no
